# System: Bacillus subtilis DB104 (SP-AmyQ fusion secretion)
# assay_details: AmyQ secretion efficiency, weighted average sort bin (1 = best secretion, 10 = worst) (bin number (weighted average, 1-10)); higher = lower secretion efficiency
reported_metric: AmyQ secretion efficiency
Keep it simple and answer with nothing but the number.

residue_sequence | system | AmyQ secretion efficiency
MKWYRRRQRCSICCAAVLLAGGAAQAEAV | Bacillus subtilis DB104 (SP-AmyQ fusion secretion) | 4.99
MKRIRIPMTLKRKRKRTIAPLSFASAEEN | Bacillus subtilis DB104 (SP-AmyQ fusion secretion) | 8.12
MKKWLIIAVSLAIAIVLFMYTKGEQKAAGM | Bacillus subtilis DB104 (SP-AmyQ fusion secretion) | 6.98

MKKRLIAPMLLSAASLAFFAMSGSAQGAAY has a reported AmyQ secretion efficiency of 4.34

MKRFSTAYTTGGILCSAAVFLIGAPSRALGAEV has a reported AmyQ secretion efficiency of 8.46

MKYCQKSISRFLVSLIIGTFVISVPFMANAQSD has a reported AmyQ secretion efficiency of 3.17

MKKLLAAGIIGLLTVSIASPSFKAEK has a reported AmyQ secretion efficiency of 5.02

----------
# Tested on: Bacillus subtilis DB104 (SP-AmyQ fusion secretion)
# assay_details: AmyQ secretion efficiency, weighted average sort bin (1 = best secretion, 10 = worst) (bin number (weighted average, 1-10)); higher = lower secretion efficiency
reported_metric: AmyQ secretion efficiency

Examples from the recorded data:
residue_sequence | system | result
MKKQSMALVILGALGTSYISADSS | Bacillus subtilis DB104 (SP-AmyQ fusion secretion) | 5.2
MKRIRIPMTYTGTAALTIAPLSFASAEEN | Bacillus subtilis DB104 (SP-AmyQ fusion secretion) | 7.36

Summary line: MKLRKMVLTGSVLSLGLLVSASPAFATSP , Bacillus subtilis DB104 (SP-AmyQ fusion secretion), reported AmyQ secretion efficiency = 1.54

Summary line: MRGKSAVLLSLIMLIAGFLISFSFKK , Bacillus subtilis DB104 (SP-AmyQ fusion secretion), reported AmyQ secretion efficiency = 6.28

Summary line: MRKNRLLLNILALFVLSLGLLSFMVTPVSAASK , Bacillus subtilis DB104 (SP-AmyQ fusion secretion), reported AmyQ secretion efficiency = 1.08

----------
# Test system: Bacillus subtilis DB104 (SP-AmyQ fusion secretion)
# assay_details: AmyQ secretion efficiency, weighted average sort bin (1 = best secretion, 10 = worst) (bin number (weighted average, 1-10)); higher = lower secretion efficiency
// label = YES if AmyQ secretion efficiency is not less than 6, otherwise NO

Sample answers from the record:
residue_sequence | discrete_label
MMKKLFHSTLRKLLFFSFFGVQPIHAKKQ | YES
MMKKGLLAGALTATVLFIGTCAVDVPGIISPKTAEAASQ | NO

Quick check, AmyQ secretion efficiency >= 6? MTMLRKIIGWILLLCIIPLFAFTVINSGKEV
YES

Quick check, AmyQ secretion efficiency >= 6? MMIKQCRKCKRLLVFGTTAAHAEET
YES

Quick check, AmyQ secretion efficiency >= 6? MKKKQVMLALTAAAGLGLTALHSAPAAKSAPL
NO

Quick check, AmyQ secretion efficiency >= 6? MKKVLMAFIICLSLILSVLAAPPSGAKCESV
NO

Quick check, AmyQ secretion efficiency >= 6? MKWMCSICCAAVLLAGGAWQAEAV
NO

Quick check, AmyQ secretion efficiency >= 6? MKKIGLLFMLCLAALKKRRFPAQQADAAEA
YES

Quick check, AmyQ secretion efficiency >= 6? MKRLLVSLRVWMVFLMNWVTPDRKTHAAAVY
YES

Quick check, AmyQ secretion efficiency >= 6? MRFTKVVGFLSVLGLAAVFPLTSQAEKA
NO
